B1: PBXIP1 (parent)
chain: LPVETLGPASRMDPESERALQAPH

variants of: B1; experiment: protein stability index of a GFP-peptide fusion (GPS, HEK-293T) (PSI 1-6); higher = more stable; conditions: c terminus: a fixed tail appended;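 also: lentivirally expressed fusions sorted by FACS into six bins by GFP to DsRed ratio, PSI derived from sequencing read proportions per bin multiplied by bin number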
Consider the following variants; for each one, report its protein stability index.
Give bare numbers.

// solved cases for protein stability index follow
# variant.annotation, protein stability index
measured = [
    ("D13L", 3.75),
    ("A9I", 4.04),
    ("L6S", 5.44),
    ("L1W", 5.13),
    ("L1R", 4.72),
]

Return reported protein stability index values for all items listed beneath this line.
1. G7P
2. P23M
3. E17C
4. E17S
5. A22C
6. A9F
7. A22P
8. L20T

A)
1: 4.61; 2: 4.16; 3: 3.76; 4: 4.56; 5: 4.45; 6: 3.83; 7: 4.27; 8: 4.58

Return reported protein stability index values for all items listed beneath this line.
1. T5I
2. A19L

A)
1: 4.52; 2: 4.22
